Cited source: PubChem BioAssay (NCI)

# reported TGI; entries follow
tested on: A498 renal; test: NCI tumour cell line growth inhibition, 48 h
metric_name: TGI

compound=NC(=O)c1ncn2c1CNC(=O)C2 study_system="A498 renal" measured="> 100 µM"
compound=Cn1c(-c2ccccc2)c2cc3nc4ccccc4nc3cc2c1-c1ccccc1 study_system="A498 renal" measured="59.5 µM"
compound="CC[C@]1(O)CC2CN(CCCc3c([nH]c4ccccc34)[C@@](C(=O)OC)(c3cc4c(cc3OC)N(C)C3C45CCN4CC=C[C@](CC)(C45)C(OC(C)=O)[C@@]3(O)C(=O)OC)C2)C1 (some centres undefined)" study_system="A498 renal" measured="4.54 µM"
compound=O=C1/C(=N\n2c(-c3ccncc3)n[nH]c2=S)c2cc(Cl)ccc2N1CN1CCCCC1 study_system="A498 renal" measured="> 100 µM"

====

system: SK-OV-3 ovarian; assay: NCI tumour cell line growth inhibition, 48 h; in the data active means GI50 below about 0.43 µM; inactive means the rest
Labels: class 1 (active), class 0 (inactive)

smiles_record=Cc1ccc(/C=C2\COc3ccc(O)c(O)c3C2=O)cc1 study_system="SK-OV-3 ovarian" qualitative_label="class 1"
smiles_record=COc1cc(/C=C2\CN(S(=O)(=O)c3ccc(C)cc3)C/C(=C\c3cc(CN4CCOCC4)c(O)c(OC)c3)C2=O)cc(CN2CCOCC2)c1O study_system="SK-OV-3 ovarian" qualitative_label="class 0"
smiles_record=O=C(c1ccccc1)c1c(C(F)(F)F)n([O-])c2ccc(F)cc2[n+]1=O study_system="SK-OV-3 ovarian" qualitative_label="class 0"
smiles_record=O=C1c2ccccc2C(=O)c2c(Nc3ccc(CCO)cc3)ccc(O)c21 study_system="SK-OV-3 ovarian" qualitative_label="class 0"
smiles_record=Cc1nc2ccc(Nc3nc(Cl)nc(Nc4ccc(F)cc4)n3)cc2n1Cc1ccccc1 study_system="SK-OV-3 ovarian" qualitative_label="class 0"

====

tested on: ACHN renal; experiment: NCI tumour cell line growth inhibition, 48 h
metric_name: TGI

compound=COc1cc(/C=C2\CN(S(=O)(=O)c3ccc(C)cc3)C/C(=C\c3cc(CN4CCOCC4)c(O)c(OC)c3)C2=O)cc(CN2CCOCC2)c1O metric_name=TGI measured="22.5 µM"
compound=COc1oc(C(=O)NC2CCCCC2)c(-c2ccc(Cl)cc2)c1S(=O)(=O)c1ccccc1 metric_name=TGI measured="> 100 µM"
compound="CCOC(=O)C1C(=O)CN2CCc3c([nH]c4ccccc34)C12C(=O)OCC (stereo not given)" metric_name=TGI measured="> 100 µM"
compound=CCOc1ccccc1N1CSc2nnc(-c3ccccc3)n2C1 metric_name=TGI measured="> 100 µM"
compound=[N-]=[N+]=NC1=C(C(=O)c2ccccc2)C(=O)c2cccc3cccc1c23 metric_name=TGI measured="> 100 µM"

====

system: HCT-15 colon; assay: NCI tumour cell line growth inhibition, 48 h
Measured TGI accompanies every entry in the list below.
metric_name: TGI

compound=CCn1c2ccccc2c2nnc(NCCCO)nc21 metric_name=TGI measured="> 100 µM"
compound="CN1CCC(SC2Cc3cc(Cl)ccc3Sc3ccccc32)CC1 (stereo unspecified)" metric_name=TGI measured="31.1 µM"
compound=CCO.CCO.Oc1ccc(Nc2ncns2)cc1.Oc1ccc(Nc2ncns2)cc1.[Ti] metric_name=TGI measured="> 100 µM"
compound="CC(C)CC(NC(=O)C(CSc1ccc([N+](=O)[O-])cc1)Cc1ccccc1)C(=O)Nc1ccccc1 (stereo unspecified)" metric_name=TGI measured="> 100 µM"
compound=O=C1Nc2ccccc2/C1=C/C(=O)c1ccc(N2CCCC2)cc1 metric_name=TGI measured="9.7 µM"
compound="CN(C)C(=S)OC(Cn1cncn1)c1ccc(Cl)cc1Cl (stereo unspecified)" metric_name=TGI measured="> 100 µM"
compound=Cn1nc(-c2ccccc2)c(C(=O)/C=C/c2ccc(F)cc2)c(N2CCCC2)c1=O metric_name=TGI measured="70 µM"
compound=O=c1[nH]c2nc3ccccc3n2c(O)c1-c1ccccc1 metric_name=TGI measured="> 100 µM"
compound=COc1ccc(-c2cc(=O)c3cc(C)cnc3[nH]2)cc1 metric_name=TGI measured="19.8 µM"
compound="N#CC1(Cc2ccccc2)CCCCN1C(=O)c1ccccc1 (stereo unspecified)" metric_name=TGI measured="> 100 µM"
compound=CN[C@H](C)[C@@H](OC)c1ccccc1 metric_name=TGI measured="> 100 µM"
